The measured values listed here are drawn from the RNAGym collection of RNA variant scans (doi:10.1038/s41586-018-0170-7).

B1: tRNA (parent)
chain: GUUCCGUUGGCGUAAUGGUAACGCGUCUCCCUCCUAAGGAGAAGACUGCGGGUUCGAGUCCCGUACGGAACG

Variants of: B1
ASSAY_OVERVIEW: yeast fitness, log relative to wild type (ln ratio); higher = fitter; tRNA-Arg(CCU), competitive growth, 37 C, 1 M NaCl
Record True whenever yeast fitness (ln) is at -0.2 or higher; record False when lower.

// below: answered variants
[[record]]
variant_identifier = "G6A C66U A70G C71U"
classification = "False"

[[record]]
variant_identifier = "G1A G6A C46U C66A A70U C71U"
classification = "True"

[[record]]
variant_identifier = "U2C C71U"
classification = "True"

[[record]]
variant_identifier = "G1A G6U C27U C66U A69G A70G C71U"
classification = "False"

[[record]]
variant_identifier = "G1A A43C A69G A70G"
classification = "True"

[[record]]
variant_identifier = "U2C G6A C27U A43C C46U C66A A70G"
classification = "True"

[[record]]
variant_identifier = "U2G G6U A69G A70U C71U"
classification = "False"

[[record]]
variant_identifier = "U2G A43C C66U"
classification = "True"

[[record]]
variant_identifier = "U2G G6A C27U C66A A69G A70U"
classification = "False"

[[record]]
variant_identifier = "G1A U2G C66A A70U"
classification = "True"


# input Given the entry U2C A43C C46U C66U , answer whether its yeast fitness (ln) meets or surpasses -0.2.
# output True

# input Given the entry U2C G6A C66A A69G A70G C71U , answer whether its yeast fitness (ln) meets or surpasses -0.2.
# output True

# input Given the entry G1A U2G G6A A43C C46U C66U A69G A70U , answer whether its yeast fitness (ln) meets or surpasses -0.2.
# output False
